This collection of values is drawn from BindingDB's records for doi:10.1016/s0960-894x(00)00535-7.

// reported pEC50 for each item listed
assay: Inhibition of HIV-induced cytopathogenicity in MT-4 cell
Where a SMILES comes first, the peptide text is derived from it. Bridges are numbered along the chain shown (N, C = ends). [ ]: non-standard residue; d: D form. 2Nal = N[C@@H](Cc1ccc2ccccc2c1)C(=O)O; Cit = NC(=O)NCCC[C@H](N)C(=O)O
Remember the convention: pEC50 equals -log10 of concentration in molar.

[[record]]
compound = "C[C@@H]1NC(=O)[C@H](CCCN=C(N)N)NC(=O)[C@H](Cc2ccc(O)cc2)NC(=O)[C@@H]2CCCN2C(=O)[C@@H](CCCCN)NC(=O)[C@H](CCCCN)NC(=O)[C@H](CCCN=C(N)N)NC(=O)[C@H](Cc2ccc(O)cc2)NC(=O)[C@@H](NC(=O)[C@H](Cc2ccc3ccccc3c2)NC(=O)[C@H](CCCN=C(N)N)NC(=O)[C@@H](N)CCCN=C(N)N)CSSC[C@@H](C(=O)N[C@@H](CCCN=C(N)N)C(=O)O)NC1=O"
readout_type = "pEC50"
observed_value = 7.80

[[record]]
compound = "CC(N)C(=O)N[C@@H](CCCN=C(N)N)C(=O)N[C@@H](Cc1ccc2ccccc2c1)C(=O)N[C@H]1CSSC[C@@H](C(=O)N[C@@H](CCCN=C(N)N)C(=O)O)NC(=O)[C@H](CCCNC(N)=O)NC(=O)[C@H](CCCN=C(N)N)NC(=O)[C@H](Cc2ccc(O)cc2)NC(=O)[C@@H]2CCCN2C(=O)[C@@H](CCCCN)NC(=O)[C@H](CCCCN)NC(=O)[C@H](CCCN=C(N)N)NC(=O)[C@H](Cc2ccc(O)cc2)NC1=O (stereo partly specified)"
readout_type = "pEC50"
observed_value = 7.25

[[record]]
compound = "NCCCC[C@@H]1NC(=O)[C@H](CCCN=C(N)N)NC(=O)[C@H](Cc2ccc(O)cc2)NC(=O)[C@@H](NC(=O)[C@H](Cc2ccc3ccccc3c2)NC(=O)[C@H](CCCN=C(N)N)NC(=O)[C@@H](N)CCCNC(N)=O)CSSC[C@@H](C(=O)N[C@@H](CCCN=C(N)N)C(=O)O)NC(=O)[C@H](CCCNC(N)=O)NC(=O)[C@H](CCCN=C(N)N)NC(=O)[C@H](Cc2ccc(O)cc2)NC(=O)[C@@H]2CCCN2C(=O)[C@@H](CCCCN)NC1=O"
readout_type = "pEC50"
observed_value = 7.82

[[record]]
compound = "C[C@H](NC(=O)[C@@H](N)CCCN=C(N)N)C(=O)N[C@@H](Cc1ccc2ccccc2c1)C(=O)N[C@H]1CSSC[C@@H](C(=O)N[C@@H](CCCN=C(N)N)C(=O)O)NC(=O)[C@H](CCCNC(N)=O)NC(=O)[C@H](CCCN=C(N)N)NC(=O)[C@H](Cc2ccc(O)cc2)NC(=O)[C@@H]2CCCN2C(=O)[C@@H](CCCCN)NC(=O)[C@H](CCCCN)NC(=O)[C@H](CCCN=C(N)N)NC(=O)[C@H](Cc2ccc(O)cc2)NC1=O"
readout_type = "pEC50"
observed_value = 5.89


Could you please provide reported pEC50 for "NCCCC[C@H]1NC(=O)[C@H](CCCNC(N)=O)NC(=O)[C@H](CCCN=C(N)N)NC(=O)[C@H](Cc2ccc(O)cc2)NC(=O)[C@@H](NC(=O)[C@H](Cc2ccc3ccccc3c2)NC(=O)[C@H](CCCN=C(N)N)NC(=O)[C@@H](N)CCCN=C(N)N)CSSC[C@@H](C(=O)N[C@@H](CCCN=C(N)N)C(=O)O)NC(=O)[C@H](CCCNC(N)=O)NC(=O)[C@H](CCCN=C(N)N)NC(=O)[C@H](Cc2ccc(O)cc2)NC(=O)[C@@H]2CCCN2C1=O" ? Thanks!
7.80

Could you please provide reported pEC50 for NCCCC[C@@H]1NC(=O)[C@H](CCCN=C(N)N)NC(=O)[C@H](Cc2ccc(O)cc2)NC(=O)[C@@H](NC(=O)[C@H](Cc2ccc3ccccc3c2)NC(=O)[C@H](CCCN=C(N)N)NC(=O)[C@@H](N)CCCN=C(N)N)CSSC[C@@H](C(=O)N[C@@H](CCCN=C(N)N)C(=O)O)NC(=O)[C@H](CCCNC(N)=O)NC(=O)[C@H](CCCN=C(N)N)NC(=O)[C@H](Cc2ccc(O)cc2)NC(=O)[C@@H]2CCCN2C(=O)[C@@H](CCCCN)NC1=O (H-RR[2Nal]CYRK[dK]PYR[Cit]CR-OH; disulfide 4-13) ? Thanks!
8.48

Could you please provide reported pEC50 for "NCCCC[C@@H]1NC(=O)[C@H](CCCN=C(N)N)NC(=O)[C@H](Cc2ccc(O)cc2)NC(=O)[C@@H](NC(=O)[C@H](Cc2ccc3ccccc3c2)NC(=O)[C@H](CCCN=C(N)N)NC(=O)[C@@H](N)CCCN=C(N)N)CSSC[C@@H](C(=O)N[C@@H](CCCN=C(N)N)C(=O)O)NC(=O)[C@H](CCCNC(N)=O)NC(=O)[C@H](CCCN=C(N)N)NC(=O)[C@H](Cc2ccc(O)cc2)NC(=O)[C@@H]2CCCN2C(=O)[C@@H](CCCNC(N)=O)NC1=O" ? Thanks!
8.40

Could you please provide reported pEC50 for "NCCCC[C@@H]1NC(=O)[C@H](CCCN=C(N)N)NC(=O)[C@H](Cc2ccc(O)cc2)NC(=O)[C@@H](NC(=O)[C@H](Cc2ccc3ccccc3c2)NC(=O)[C@H](CCCN=C(N)N)NC(=O)[C@@H](N)CCCN=C(N)N)CSSC[C@@H](C(=O)N[C@@H](CCCNC(N)=O)C(=O)O)NC(=O)[C@H](CCCNC(N)=O)NC(=O)[C@H](CCCN=C(N)N)NC(=O)[C@H](Cc2ccc(O)cc2)NC(=O)[C@@H]2CCCN2C(=O)[C@@H](CCCCN)NC1=O" ? Thanks!
6.06

Could you please provide reported pEC50 for "NCCCC[C@@H]1NC(=O)[C@H](CCCN=C(N)N)NC(=O)[C@H](Cc2ccc(O)cc2)NC(=O)[C@@H](NC(=O)[C@H](Cc2c[nH]c3ccccc23)NC(=O)[C@H](CCCN=C(N)N)NC(=O)[C@@H](N)CCCN=C(N)N)CSSC[C@@H](C(=O)N[C@@H](CCCN=C(N)N)C(=O)O)NC(=O)[C@H](CCCNC(N)=O)NC(=O)[C@H](CCCN=C(N)N)NC(=O)[C@H](Cc2ccc(O)cc2)NC(=O)[C@@H]2CCCN2C(=O)[C@@H](CCCCN)NC1=O" ? Thanks!
8.08

Could you please provide reported pEC50 for "NCCCC[C@@H]1NC(=O)[C@H](CCCNC(N)=O)NC(=O)[C@H](Cc2ccc(O)cc2)NC(=O)[C@@H](NC(=O)[C@H](Cc2ccc3ccccc3c2)NC(=O)[C@H](CCCN=C(N)N)NC(=O)[C@@H](N)CCCN=C(N)N)CSSC[C@@H](C(=O)N[C@@H](CCCN=C(N)N)C(=O)O)NC(=O)[C@H](CCCNC(N)=O)NC(=O)[C@H](CCCN=C(N)N)NC(=O)[C@H](Cc2ccc(O)cc2)NC(=O)[C@@H]2CCCN2C(=O)[C@@H](CCCCN)NC1=O" ? Thanks!
8.55

Could you please provide reported pEC50 for "NCCCC[C@@H]1NC(=O)[C@H](CCCN=C(N)N)NC(=O)[C@H](Cc2ccc(O)cc2)NC(=O)[C@@H](NC(=O)[C@H](Cc2ccc3ccccc3c2)NC(=O)[C@H](CCCN=C(N)N)NC(=O)[C@@H](N)CCCN=C(N)N)CSSC[C@@H](C(=O)N[C@@H](CCCN=C(N)N)C(=O)O)NC(=O)[C@H](CCCNC(N)=O)NC(=O)[C@H](CCCNC(N)=O)NC(=O)[C@H](Cc2ccc(O)cc2)NC(=O)[C@@H]2CCCN2C(=O)[C@@H](CCCCN)NC1=O" ? Thanks!
7.82

* * *

// reported pEC50 for each item listed
test: Inhibition of HIV-induced cytopathogenicity in MT-4 cell
Where a SMILES comes first, the peptide text is derived from it. Bridges are numbered along the chain shown (N, C = ends). [ ]: non-standard residue; d: D form. 2Nal = N[C@@H](Cc1ccc2ccccc2c1)C(=O)O; Cit = NC(=O)NCCC[C@H](N)C(=O)O
Remember the convention: pEC50 equals -log10 of concentration in molar.

[[record]]
molecule = "C[C@@H]1NC(=O)[C@H](Cc2ccc(O)cc2)NC(=O)[C@@H](NC(=O)[C@H](Cc2ccc3ccccc3c2)NC(=O)[C@H](CCCN=C(N)N)NC(=O)[C@@H](N)CCCN=C(N)N)CSSC[C@@H](C(=O)N[C@@H](CCCN=C(N)N)C(=O)O)NC(=O)[C@H](CCCNC(N)=O)NC(=O)[C@H](CCCN=C(N)N)NC(=O)[C@H](Cc2ccc(O)cc2)NC(=O)[C@@H]2CCCN2C(=O)[C@@H](CCCCN)NC(=O)[C@H](CCCCN)NC1=O"
observed_value = 8.03

[[record]]
molecule = "C[C@@H]1NC(=O)[C@@H]2CCCN2C(=O)[C@@H](CCCCN)NC(=O)[C@H](CCCCN)NC(=O)[C@H](CCCN=C(N)N)NC(=O)[C@H](Cc2ccc(O)cc2)NC(=O)[C@@H](NC(=O)[C@H](Cc2ccc3ccccc3c2)NC(=O)[C@H](CCCN=C(N)N)NC(=O)[C@@H](N)CCCN=C(N)N)CSSC[C@@H](C(=O)N[C@@H](CCCN=C(N)N)C(=O)O)NC(=O)[C@H](CCCNC(N)=O)NC(=O)[C@H](CCCN=C(N)N)NC1=O"
observed_value = 7.77


Could you please provide reported pEC50 for "C[C@H](NC(=O)[C@H](CCCN=C(N)N)NC(=O)[C@@H](N)CCCN=C(N)N)C(=O)N[C@H]1CSSC[C@@H](C(=O)N[C@@H](CCCN=C(N)N)C(=O)O)NC(=O)[C@H](CCCNC(N)=O)NC(=O)[C@H](CCCN=C(N)N)NC(=O)[C@H](Cc2ccc(O)cc2)NC(=O)[C@@H]2CCCN2C(=O)[C@@H](CCCCN)NC(=O)[C@H](CCCCN)NC(=O)[C@H](CCCN=C(N)N)NC(=O)[C@H](Cc2ccc(O)cc2)NC1=O" ? Thanks!
5.60

Could you please provide reported pEC50 for C[C@@H]1NC(=O)[C@@H](CCCCN)NC(=O)[C@H](CCCCN)NC(=O)[C@H](CCCN=C(N)N)NC(=O)[C@H](Cc2ccc(O)cc2)NC(=O)[C@@H](NC(=O)[C@H](Cc2ccc3ccccc3c2)NC(=O)[C@H](CCCN=C(N)N)NC(=O)[C@@H](N)CCCN=C(N)N)CSSC[C@@H](C(=O)N[C@@H](CCCN=C(N)N)C(=O)O)NC(=O)[C@H](CCCNC(N)=O)NC(=O)[C@H](CCCN=C(N)N)NC(=O)[C@H](Cc2ccc(O)cc2)NC1=O (H-RR[2Nal]CYRK[dK]AYR[Cit]CR-OH; disulfide 4-13) ? Thanks!
7.77

Could you please provide reported pEC50 for "C[C@@H]1NC(=O)[C@H](Cc2ccc(O)cc2)NC(=O)[C@@H]2CCCN2C(=O)[C@@H](CCCCN)NC(=O)[C@H](CCCCN)NC(=O)[C@H](CCCN=C(N)N)NC(=O)[C@H](Cc2ccc(O)cc2)NC(=O)[C@@H](NC(=O)[C@H](Cc2ccc3ccccc3c2)NC(=O)[C@H](CCCN=C(N)N)NC(=O)[C@@H](N)CCCN=C(N)N)CSSC[C@@H](C(=O)N[C@@H](CCCN=C(N)N)C(=O)O)NC(=O)[C@H](CCCNC(N)=O)NC1=O" ? Thanks!
7.74

Could you please provide reported pEC50 for "C[C@H](NC(=O)[C@@H]1CSSC[C@H](NC(=O)[C@H](Cc2ccc3ccccc3c2)NC(=O)[C@H](CCCN=C(N)N)NC(=O)[C@@H](N)CCCN=C(N)N)C(=O)N[C@@H](Cc2ccc(O)cc2)C(=O)N[C@@H](CCCN=C(N)N)C(=O)N[C@@H](CCCCN)C(=O)N[C@H](CCCCN)C(=O)N2CCC[C@H]2C(=O)N[C@@H](Cc2ccc(O)cc2)C(=O)N[C@@H](CCCN=C(N)N)C(=O)N[C@@H](CCCNC(N)=O)C(=O)N1)C(=O)O" ? Thanks!
6.40

Could you please provide reported pEC50 for "C[C@H]1NC(=O)[C@H](CCCCN)NC(=O)[C@H](CCCN=C(N)N)NC(=O)[C@H](Cc2ccc(O)cc2)NC(=O)[C@@H](NC(=O)[C@H](Cc2ccc3ccccc3c2)NC(=O)[C@H](CCCN=C(N)N)NC(=O)[C@@H](N)CCCN=C(N)N)CSSC[C@@H](C(=O)N[C@@H](CCCN=C(N)N)C(=O)O)NC(=O)[C@H](CCCNC(N)=O)NC(=O)[C@H](CCCN=C(N)N)NC(=O)[C@H](Cc2ccc(O)cc2)NC(=O)[C@@H]2CCCN2C1=O" ? Thanks!
7.80

Could you please provide reported pEC50 for "C[C@@H]1NC(=O)[C@@H](NC(=O)[C@H](Cc2ccc3ccccc3c2)NC(=O)[C@H](CCCN=C(N)N)NC(=O)[C@@H](N)CCCN=C(N)N)CSSC[C@@H](C(=O)N[C@@H](CCCN=C(N)N)C(=O)O)NC(=O)[C@H](CCCNC(N)=O)NC(=O)[C@H](CCCN=C(N)N)NC(=O)[C@H](Cc2ccc(O)cc2)NC(=O)[C@@H]2CCCN2C(=O)[C@@H](CCCCN)NC(=O)[C@H](CCCCN)NC(=O)[C@H](CCCN=C(N)N)NC1=O" ? Thanks!
6.44

Could you please provide reported pEC50 for "NCCCC[C@@H]1NC(=O)[C@H](CCCN=C(N)N)NC(=O)[C@H](Cc2ccc(O)cc2)NC(=O)[C@@H](NC(=O)[C@H](Cc2ccc3ccccc3c2)NC(=O)[C@H](CCCNC(N)=O)NC(=O)[C@@H](N)CCCN=C(N)N)CSSC[C@@H](C(=O)N[C@@H](CCCN=C(N)N)C(=O)O)NC(=O)[C@H](CCCNC(N)=O)NC(=O)[C@H](CCCN=C(N)N)NC(=O)[C@H](Cc2ccc(O)cc2)NC(=O)[C@@H]2CCCN2C(=O)[C@@H](CCCCN)NC1=O" ? Thanks!
6.35

Could you please provide reported pEC50 for "C[C@@H]1NC(=O)[C@H](CCCN=C(N)N)NC(=O)[C@H](Cc2ccc(O)cc2)NC(=O)[C@@H](NC(=O)[C@H](Cc2ccc3ccccc3c2)NC(=O)[C@H](CCCN=C(N)N)NC(=O)[C@@H](N)CCCN=C(N)N)CSSC[C@@H](C(=O)N[C@@H](CCCN=C(N)N)C(=O)O)NC(=O)[C@H](CCCNC(N)=O)NC(=O)[C@H](CCCN=C(N)N)NC(=O)[C@H](Cc2ccc(O)cc2)NC(=O)[C@@H]2CCCN2C(=O)[C@@H](CCCCN)NC1=O" ? Thanks!
7.33
